# System: HCT-116 colon
# procedureSummary: NCI-60 one-dose screen, 48 h (100 = growth as untreated, 0 = no growth, -100 = all killed)
# studyConditions: 10 µM unless noted
Compounds without any hit were thinned out: in the full panel of roughly 83,000, 20% have a hit.
Each record is given Satisfied if its reported growth is strictly below 80%. Records at or above 80% are given Not satisfied.

>>> labelclass("COc1cc(C(=O)NN=C2c3ccccc3-c3ccccc32)cc(OC)c1OC")
"Satisfied"
>>> labelclass("COc1ccccc1N1CCN(C(CNS(=O)(=O)c2ccc(Cl)cc2)c2cccnc2)CC1 (stereo not given)")
"Not satisfied"

Query :: Answer whether the molecule `COc1ccc2sc(N(Cc3cccnc3)C(=O)c3ccc(C#N)cc3)nc2c1` has growth strictly less than 80%
Result :: Satisfied

Query :: Decide: growth of COc1ccc(C2C3=C(COC3=O)N(CCO)c3cc4c(cc32)OCCO4)cc1 (stereo not given) strictly below 80%?
Result :: Satisfied

Query :: Does this molecule meet the criterion growth < 80%? OC(c1ccccc1)c1nnc(SCc2ccccc2)n1Cc1ccccc1 (stereo not given)
Result :: Not satisfied

====

# Test system: SK-MEL-5 melanoma
# procedureSummary: NCI-60 one-dose screen, 48 h (100 = growth as untreated, 0 = no growth, -100 = all killed)
# studyConditions: 10 µM unless noted
This is part of a sample that, as a whole, favours compounds with a hit. Of some 83,000 tested, about 20% had one in any assay.
assayMetric: growth (%)
Give the quantity in %, number only.

>>> measurement("Fc1cccc(COc2ccc(Nc3ncnc4onc(-c5ccccc5)c34)cc2)c1")
19.2

Now let's try a different one.
Per the reported SK-MEL-5 melanoma data, `O=C(CN1C(=O)/C(=C\c2ccc(Cl)cc2)SC1=S)Nc1ncc(Cc2ccc(Cl)cc2)s1` has growth of 95.7

====

# Tested on: A549/ATCC NSCLC
# procedureSummary: NCI-60 one-dose screen, 48 h (100 = growth as untreated, 0 = no growth, -100 = all killed)
# studyConditions: 10 µM unless noted
About 83,000 compounds went through this panel and 20% of them were active in at least one assay; those are over-represented in the sample as a whole.
assayMetric: growth (%)
Give the number; % is assumed, so skip it.

>>> measurement("O=C1/C(=C/c2ccc(O)cc2)COc2ccc(O)c(O)c21")
34.5
>>> measurement("Nc1ccc(-n2c(=O)oc3ccc(Cl)cc3c2=O)c(Cl)c1")
6.26
>>> measurement("CN1C(=O)N(C)C2C1NN=c1s/c(=C\\c3ccc([N+](=O)[O-])cc3)c(=O)n12 (configuration not stated)")
59.9
>>> measurement("COc1ccc(C2C3=C(COC3=O)N(CCO)c3cc4c(cc32)OCCO4)cc1 (configuration not stated)")
76.6
>>> measurement("FC(F)(F)c1cccc(CNC2CCN(CCc3ccccc3)CC2)c1")
77.5

Please look at the following compound next.
Lab note: measured growth of `Nc1n[nH]c2ccc([C@@H]3Nc4ccc5[nH]ncc5c4[C@H]4[C@H]5CCC(C5)[C@H]43)cc12` was 18.5

====

# System: MDA-MB-231 breast
# procedureSummary: NCI-60 one-dose screen, 48 h (100 = growth as untreated, 0 = no growth, -100 = all killed)
# studyConditions: 10 µM unless noted
# Method: Cells are grown in 96 well plates and exposed to the test compound for 48 hours. Compounds are tested at a single concentration, which is 10^-5 M for most compounds. The reported endpoint is percent growth (GI% or GIPRCNT), where numbers from 0 - 100% represent growth inhibition, and numbers from -100% - 0 represent cell death. For example, a value of 40 represents 60% growth inhibition. A value of 0 means no net growth occurred over the course of the experiment. […]
This is part of a sample that, as a whole, favours compounds with a hit. Of some 83,000 tested, about 20% had one in any assay.
Lab note - cut at -10% for growth: condition met if strictly below, condition not met if not.

>>> labelclass("CCOC(=O)c1cc2c(n1Cc1cccc(OC)c1)-c1oncc1CCC2")
"condition not met"

Please look at the following compound next.
Query :: growth strictly < -10% for this compound? `O=C(Nc1ccc(Br)cc1F)c1cc(F)ccc1O`
Result :: condition met

====

Some compounds, each annotated with its measured growth.
# Test system: IGROV1 ovarian
# procedureSummary: NCI-60 one-dose screen, 48 h (100 = growth as untreated, 0 = no growth, -100 = all killed)
# studyConditions: 10 µM unless noted
The panel holds about 83,000 compounds, 20% with a hit somewhere; the sample as a whole holds those more often.
Express your answer in %, writing the number without its unit.

Previously resolved entries follow.
>>> measurement("O=C(Nc1ccc(I)cc1F)c1cc(Br)ccc1O")
16.3
>>> measurement("CC(C)CCNCC(O)Cn1c2ccccc2c2ccccc21 (configuration not stated)")
10.3
>>> measurement("CS(=O)(=O)Nc1ccc(C(=O)NC(C(=O)NO)c2ccc(-c3cccc(F)c3)cc2)cc1 (configuration not stated)")
39.6

Entry under test: `CCOC(=O)C(CC(=O)O)=C(C(=O)OCC)C(=O)OCC` . Its growth was 111

// growth value for `O=C1Nc2ccccc2/C1=C/c1cccs1` : 72

Noted for `Nc1nc(-c2ccccc2Br)nn1-c1nc2ccccc2s1` : its growth reads 101

Measured growth of `NCCNc1nc2ccc(F)cc2c2c(=O)c3cc(F)ccc3sc12` : 22.9

get_value(item= `Oc1c(CN2CCN(c3ccccc3F)CC2)cc(Br)c2cccnc12` , readout=growth) returns -34.1

growth reading for `O=C(COc1cc(O)c2c(=O)cc(-c3ccccc3)oc2c1)Nc1ccccc1C(F)(F)F` : 40.3

Per the records, this compound ( CC(=Nc1ccccc1)C1=C(O)C(Cc2ccc(F)cc2)NC1=O (configuration not stated) ) has growth equal to 36.7

In plain terms, `O=C1c2cc(I)ccc2Oc2cc([N+](=O)[O-])ccc2N1c1ccc(Cl)cc1F` has a documented growth of 72.3

Sure, the documented growth for `Cc1ccc2c(n1)C(=O)C(Oc1ccc(Br)cc1)=CC2=O` is 104

The reported value for COc1ccc(C2C3=C(COC3=O)N(CCO)c3cc4c(cc32)OCCO4)cc1 (configuration not stated) in terms of growth is 80.7

In plain terms, CCN1C(=O)N(CC)C2C1NN=c1s/c(=C3\C(=O)N(C(C)C)c4ccccc43)c(=O)n12 (configuration not stated) has a documented growth of 36.5

Form: compound = `O=c1cc(NC2CCN(CCCc3ccccc3)CC2)c2cc(Cl)ccc2o1` ; growth = -4.09

GET /value?item= COc1c(B(O)O)cccc1-c1nc2ccc3[nH]ncc3c2c2c1C1CCC2C1 (configuration not stated) &field=growth returns 76.1

growth measured on `COc1cc(C=C2C(=O)N(C)C(=O)N(C)C2=O)cc(CN2CCCCC2)c1O` = 104

// sample `FC(F)(F)c1cccc(CNC2CCN(CCc3ccccc3)CC2)c1` , its growth was 61.9

# compound `O=C1/C(=C/c2ccc(O)cc2)COc2ccc(O)cc21` ; its growth = 97.3

// `O=C1c2ccccc2C(=O)c2c1ccc1[nH]c(CCl)nc21` : growth value = 15.2

Summary for this compound, `CCC(C)(C)C(=O)O[C@H]1C[C@@H](C)C=C2C=C[C@H](C)[C@H](CC[C@@H]3CC=CC(=O)O3)[C@H]21` : growth is 97.2

The compound O=C(O)CCCN1C(=O)C2C3CCC(C3)C2C1=O (configuration not stated) showed growth equal to 102

Entry `CCCCCCCCCCCCCCn1cc(C2=C(c3coc4ccc(OC)cc34)C(=O)NC2=O)c2ccccc21` , growth reported as 81.6

compound `CC(C)[C@H](NC(=O)Cn1cc(C(=O)O)nn1)C(=O)O` , growth observed: 111

compound `Cn1c(C(=O)c2cccc3ccccc23)nc2ccccc21` , growth observed: -6.8

compound `COc1ccc(/C=C2\N=C(c3ccccc3)N(c3ccc(-c4nc5ccc(C)cc5s4)cc3)C2=O)cc1` , growth observed: 58.6

// sample `CCOC(=O)c1c2c(n3cccc(Cl)c13)C(=O)c1ncccc1C2=O` , its growth was 61.9

growth for O=C(CN1C=NC2C(N3CCOCC3)=NC=NC21)c1cccc2ccccc12 (configuration not stated) is 90.8

Data point: `C=C1C(=O)O[C@H]2[C@H]1CC/C(COC(=O)/C=C\C(=O)O)=C\CC[C@@]1(C)O[C@@H]21` ; growth = 107

====

# System: RXF 393 renal
# procedureSummary: NCI-60 one-dose screen, 48 h (100 = growth as untreated, 0 = no growth, -100 = all killed)
# studyConditions: 10 µM unless noted
# Method: Cells are grown in 96 well plates and exposed to the test compound for 48 hours. Compounds are tested at a single concentration, which is 10^-5 M for most compounds. The reported endpoint is percent growth (GI% or GIPRCNT), where numbers from 0 - 100% represent growth inhibition, and numbers from -100% - 0 represent cell death. For example, a value of 40 represents 60% growth inhibition. A value of 0 means no net growth occurred over the course of the experiment. […]
This is part of a sample that, as a whole, favours compounds with a hit. Of some 83,000 tested, about 20% had one in any assay.
If the reported growth equals or exceeds 50%, assign true. If not, assign false.

Observe how each entry below is paired with its result.
>>> labelclass("COc1cc(/C=C/C(=O)c2ccc(Cl)cc2)cc(CN2CCCCC2)c1O")
"true"
>>> labelclass("Cc1ccc(NCCNCC(O)CO)c2c(=O)c3ccccc3sc12 (stereo unspecified)")
"false"

Query :: Assess whether reported growth for `O=C(Nc1ccc(Cl)cc1F)c1cc(I)ccc1O` sits at 50% or higher.
Result :: false

Query :: Identify whether the reported growth of the following compound is 50% or greater: O=S1(=O)N(Cc2ccccc2)[C@@H](Cc2ccccc2)C2O[C@H]2[C@H](Cc2ccccc2)N1Cc1ccccc1 (stereo partly specified)
Result :: false

Query :: Textbook exercise: given the entry `Cc1ccc(Nc2nc(N)c3ccccc3n2)cc1Cl` , state whether its growth is greater than or equal to 50%.
Result :: true
